tested-system: SHP2 (Homo sapiens)
Construct: SHP2 expressed in cells; endogenous in cells; host or cells: MV-4-11
Sequence (Q06124 whole entry): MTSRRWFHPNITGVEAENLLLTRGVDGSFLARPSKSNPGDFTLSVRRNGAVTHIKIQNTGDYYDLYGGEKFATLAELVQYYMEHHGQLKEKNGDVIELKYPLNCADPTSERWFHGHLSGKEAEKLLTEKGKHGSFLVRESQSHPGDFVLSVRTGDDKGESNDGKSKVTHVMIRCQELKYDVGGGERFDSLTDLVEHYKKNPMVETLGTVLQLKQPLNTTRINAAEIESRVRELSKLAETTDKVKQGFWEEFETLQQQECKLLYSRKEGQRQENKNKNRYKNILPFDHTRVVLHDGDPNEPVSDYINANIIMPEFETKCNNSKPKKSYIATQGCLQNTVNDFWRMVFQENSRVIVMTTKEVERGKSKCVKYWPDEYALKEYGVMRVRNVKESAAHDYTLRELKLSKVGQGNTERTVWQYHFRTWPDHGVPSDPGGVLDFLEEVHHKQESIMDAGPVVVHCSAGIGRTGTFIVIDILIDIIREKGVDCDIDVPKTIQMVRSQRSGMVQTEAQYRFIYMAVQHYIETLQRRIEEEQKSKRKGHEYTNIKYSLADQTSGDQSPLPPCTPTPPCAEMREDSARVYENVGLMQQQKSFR
measurement-description: SHP2 protein degradation by western blot in MV-4-11 cells
Type: cell-based
condition-summary: MV-4-11, 24 hours, 50% inhibition of protein expression; read-out: DC50 of SHP2-targeted PROTAC
For each record, write down the corresponding DC50.
Write your answer as a measured quantity: the number, then the unit.

Answer for every listed entry: what is its DC50? The entries follow.
1. C[C@@H]1OCC2(CCN(c3cnc(Sc4cccc(NC(=O)CCC(=O)N5CCN(C(=O)CCOCCOCCOCCOCCOCCNc6cccc7cnn(C8CCC(=O)NC8=O)c(=O)c67)CC5)c4Cl)c(N)n3)CC2)[C@@H]1N (stereo partly shown)
2. C[C@@H]1OCC2(CCN(c3cnc(Sc4cccc(NC(=O)CCC(=O)N5CCN(C(=O)CCOCCOCCOCCOCCNc6cccc7cnn(C8CCC(=O)NC8=O)c(=O)c67)CC5)c4Cl)c(N)n3)CC2)[C@@H]1N (stereo partly shown)
3. C[C@@H]1OCC2(CCN(c3cnc(Sc4cccc(NC(=O)CCC(=O)N5CCN(C(=O)CCOCCOCCOCCOCCOCCOCCNc6cccc7cnn(C8CCC(=O)NC8=O)c(=O)c67)CC5)c4Cl)c(N)n3)CC2)[C@@H]1N (stereo partly shown)
4. C[C@@H]1OCC2(CCN(c3cnc(Sc4cccc(NC(=O)CCC(=O)NCCCOCCOCCOCCCNc5ccc6c(=O)n(C7CCC(=O)NC7=O)ncc6c5)c4Cl)c(N)n3)CC2)[C@@H]1N (stereo partly shown)

["24.1 nM", "70.2 nM", "23.6 nM", "29.9 nM"]
